Tested on: HepG2
Test: cytotoxicity call (relative viability < 0.9)
Details: 10 µM
About 3,300 (8.5%) of roughly 39,000 compounds were called active. The sample holds actives, similar compounds and a random draw of the others, so the mix is not that of the screen.
Would you mind answering with one of these outcomes? 1 for active, -1 for inactive

C[C@@H]1CCCCO[C@H](CN(C)C(=O)Nc2cccc3ccccc23)[C@@H](C)CN([C@@H](C)CO)C(=O)c2cc(NC(=O)C3CCCCC3)ccc2O1 : -1
C[C@@H]1CN([C@H](C)CO)C(=O)c2cc(NC(=O)C3CCCCC3)ccc2O[C@@H](C)CCCCO[C@H]1CN(C)C(=O)Nc1cccc2ccccc12 : -1
C[C@@H]1CN([C@H](C)CO)C(=O)c2cccc(NC(=O)Nc3ccc4c(c3)OCO4)c2O[C@@H]1CN(C)Cc1ccc(-c2ccccc2)cc1 : -1
C[C@H](CO)N1C[C@H](C)[C@@H](CN(C)Cc2ccc(Oc3ccccc3)cc2)Oc2c(NC(=O)Nc3ccc4c(c3)OCO4)cccc2C1=O : -1
C[C@@H]1CCCCO[C@@H](CN(C)C(=O)Nc2cccc3ccccc23)[C@@H](C)CN([C@H](C)CO)C(=O)c2cc(NC(=O)C3CCCCC3)ccc2O1 : -1

Prompt line: Which outcome was assigned to C[C@H]1CN([C@@H](C)CO)C(=O)c2cccc(NC(=O)Nc3ccc4c(c3)OCO4)c2O[C@@H]1CN(C)Cc1ccc(-c2ccccc2)cc1 in this test?
Response line: -1

Prompt line: Per the records of this test, what outcome belongs to C[C@@H]1CN([C@@H](C)CO)C(=O)Cc2cc(NC(=O)Cc3ccccc3)ccc2O[C@@H]1CN(C)S(=O)(=O)c1ccccc1 ?
Response line: -1

Prompt line: Name the outcome recorded for C[C@@H]1CN([C@H](C)CO)C(=O)c2cc(NC(=O)C3CCCCC3)ccc2O[C@@H](C)CCCCO[C@@H]1CN(C)C(=O)Nc1cccc2ccccc12 in the assay.
Response line: 1

Prompt line: Given C[C@@H]1CN([C@H](C)CO)C(=O)c2cccc(NC(=O)Nc3ccc4c(c3)OCO4)c2O[C@H]1CN(C)Cc1ccc(Oc2ccccc2)cc1 , state the outcome it received in this test.
Response line: 1
